Assay: VP16 transactivation reporter inhibitors, counter-screen for LRH-1 inverse agonist project, cell-based, luminescence, high throughput (AID 651615)
Conditions: Gal4-VP16 luciferase reporter cells, at 3.6 µM, stronger effect = higher value
Output true (1) for inhibition not less than 9%; output false (0) otherwise.

{"columns": ["MOLECULE", "ANSWER_LABEL"],
 "data": [
  ["CCN(CC)C1Oc2cc3c(cc2C(c2cc(OC)c(OC)c(OC)c2)C1C)OCO3 (configuration not stated)", "true (1)"]
]}

Q: Does `COc1cc2c(cc1OC)CN(C(=O)Cn1ccccc1=O)CC2` have a reported inhibition of at least 9%?
A: false (0)

Q: Record: `CCCCc1c(O)nc(SCC(=O)Nc2ccc3c(c2)CCC3)[nH]c1=O`
A: false (0)

Q: Record: `COc1ccc(CNC(=O)O[C@@H]2C[C@H]3C(=O)N(c4ccccc4)C(=O)[C@H]3[C@@]3(CN(S(=O)(=O)c4ccc(C)cc4)C[C@H]3C)[C@@H]2O)cc1OC`
A: false (0)

Q: Record: `O=C(c1c(F)c(F)c(F)c(F)c1F)N1CCN(c2cccc(C(F)(F)F)c2)CC1`
A: true (1)

Q: Record: `COc1cc(OC)cc(-c2cc3nc(C)c(CCC(=O)O)c(C)n3n2)c1`
A: true (1)

Q: Record: COc1cccc2c1C(=O)c1c(O)c3c(c(O)c1C2=O)CC(O)(C(C)=NNC(=O)c1ccc(Cl)c(Cl)c1)CC3OC1CC(N)C(O)C(C)O1 (configuration not stated)
A: true (1)
